- experiment.summary: peroral pharmahuasca study: DMT and harmine concentrations in plasma
- condition.description: male, human, oral
readout.kind: Tmax

Incoming: I am curious: what Tmax value has been reported for COc1ccc2c(c1)[nH]c1c(C)nccc12 [harmine, 7-Methoxy-1-methyl-9H-pyrido[3,4-b]indol] ?
Outgoing: 1 to 4.5 h

----------
I'd appreciate it if you could supply solubility values for the items below.
- experiment.summary: aqueous solubility of DMT and harmine forms
- condition.description: water, 25 °C

Incoming: I am curious: what solubility value has been reported for COc1ccc2c(c1)[nH]c1c(C)nccc12.O=S(=O)(O)O [harmine sulfate] ?
Outgoing: ≤ 35 mg/mL

Incoming: I am curious: what solubility value has been reported for CN(C)CCc1c[nH]c2ccccc12.O=C(O)/C=C/C(=O)O [DMT fumarate, N,N-dimethyltryptamine fumarate] ?
Outgoing: > 35 mg/mL

Incoming: I am curious: what solubility value has been reported for COc1ccc2c(c1)[nH]c1c(C)nccc12.O=C(O)/C=C/C(=O)O [harmine fumarate] ?
Outgoing: ≤ 35 mg/mL

Incoming: I am curious: what solubility value has been reported for COc1ccc2c(c1)[nH]c1c(C)nccc12.Cl [harmine HCl, Harmine hydrochloride] ?
Outgoing: ≤ 35 mg/mL

Incoming: I am curious: what solubility value has been reported for COc1ccc2c(c1)[nH]c1c(C)nccc12.O=C(O)CC(O)(CC(=O)O)C(=O)O [harmine citrate] ?
Outgoing: ≤ 35 mg/mL

Incoming: I am curious: what solubility value has been reported for CC(=O)O.COc1ccc2c(c1)[nH]c1c(C)nccc12 [harmine acetate] ?
Outgoing: ≤ 35 mg/mL

Values were extracted from patent US20230233537A1.
